assay-system: MMP-14 (cdMT-1; human recombinant catalytic domain of membrane-type 1 matrix metalloproteinase) (Homo sapiens)
Construct: human recombinant catalytic domain of membrane-type 1 matrix metalloproteinase (cdMT1-MMP)
experiment-description: Enzyme kinetic assay, inhibition of MMP-14
Type: biochemical
reported-conditions: read-out: Ki (value in parentheses), cdMT-1 MMP-14
Structures can show the parent of a compound that is named as a salt.

compound	Ki
NCCCCCC(=O)N1C[C@H](NS(=O)(=O)c2ccc(Oc3ccccc3)cc2)[C@@H](S)C1 (racemic) [Example 7, Hydrochloride]	5 nM
NC(=O)N1C[C@H](NS(=O)(=O)c2ccc(Oc3ccccc3)cc2)[C@@H](S)C1 (racemic) [Example 1]	11 nM
O=C(OCc1ccccc1)N1C[C@H](NS(=O)(=O)c2ccc(Oc3ccccc3)cc2)[C@@H](S)C1 (racemic) [Example 5]	100 nM
O=C(OCc1ccccc1)N1C[C@H](NS(=O)(=O)c2ccc(-c3ccccc3)cc2)[C@@H](S)C1 (racemic) [Example 6]	3100 nM
O=S(=O)(N[C@H]1CNC[C@@H]1S)c1ccc(Oc2ccccc2)cc1 (racemic) [Example 3, Hydrochloride]	110 nM
O=C(NCCN1C(=O)c2ccccc2C1=O)N1C[C@H](NS(=O)(=O)c2ccc(Oc3ccccc3)cc2)[C@@H](S)C1 (racemic) [Example 2]	21 nM
CN([C@H]1CN(C(N)=O)C[C@@H]1S)S(=O)(=O)c1ccc(Oc2ccccc2)cc1 (racemic) [Example 4]	62 nM
CC(=O)NCCCCCC(=O)N1C[C@H](NS(=O)(=O)c2ccc(Oc3ccccc3)cc2)[C@@H](S)C1 (racemic) [Example 8]	4 nM
CC(=O)NCCCCCC(=O)N1C[C@H](NS(=O)(=O)c2ccc(-c3ccccc3)cc2)[C@@H](S)C1 (racemic) [Example 9]	70 nM

* * *

Parameter: IC50. Scope: all listed entries.
assay-system: MMP-1 (HFC; human fibroblast collagenase) (Homo sapiens)
Sequence (P03956 100-469): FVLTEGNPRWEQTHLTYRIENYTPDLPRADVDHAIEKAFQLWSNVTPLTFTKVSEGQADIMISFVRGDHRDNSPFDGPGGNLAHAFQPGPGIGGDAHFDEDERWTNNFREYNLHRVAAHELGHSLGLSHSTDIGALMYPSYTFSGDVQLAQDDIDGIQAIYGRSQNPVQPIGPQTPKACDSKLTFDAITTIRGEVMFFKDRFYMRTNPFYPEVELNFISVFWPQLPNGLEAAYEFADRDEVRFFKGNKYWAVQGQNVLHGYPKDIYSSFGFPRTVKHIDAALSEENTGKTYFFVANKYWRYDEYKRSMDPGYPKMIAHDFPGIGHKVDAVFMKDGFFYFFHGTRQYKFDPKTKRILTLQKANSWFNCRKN
experiment-description: Enzyme kinetic assay, inhibition of MMP-1
reported-conditions: 25° C., pH 7.5, substrate 1 μM; read-out: IC50 (value without parentheses), HFC MMP-1
Counter-ions that a name gives are not always drawn.

compound	IC50
O=S(=O)(N[C@@H]1CNC[C@H]1S)c1ccc(Oc2ccccc2)cc1 [Example 11, Hydrochloride]	6.3 µM
O=S(=O)(N[C@H]1CNC[C@@H]1S)c1ccc(Oc2ccccc2)cc1 [Example 10, Hydrochloride]	50 µM
O=C(OCc1ccccc1)N1C[C@H](S)[C@H](NS(=O)(=O)c2ccc(Oc3ccccc3)cc2)C1	~125 µM

* * *

assay-system: MMP-13 (COL-3) (Homo sapiens, UniProt P45452)
Where a name gives a salt, the structure may show the parent alone.
Ki strictly less than 40 nM = condition met. Otherwise condition not met.

compound	discrete-label
O=C(NCCN1C(=O)c2ccccc2C1=O)N1C[C@H](NS(=O)(=O)c2ccc(Oc3ccccc3)cc2)[C@@H](S)C1 (racemic)	condition met
CC(=O)NCCCCCC(=O)N1C[C@H](NS(=O)(=O)c2ccc(Oc3ccccc3)cc2)[C@@H](S)C1 (racemic)	condition met
O=C(OCc1ccccc1)N1C[C@H](NS(=O)(=O)c2ccc(-c3ccccc3)cc2)[C@@H](S)C1 (racemic)	condition not met
NCCCCCC(=O)N1C[C@H](NS(=O)(=O)c2ccc(Oc3ccccc3)cc2)[C@@H](S)C1 (racemic) [Example 7, Hydrochloride]	condition met
O=S(=O)(N[C@H]1CNC[C@@H]1S)c1ccc(Oc2ccccc2)cc1 (racemic) [Example 3, Hydrochloride]	condition met

Cited source for all entries: patent US8404866B2
